target: human ether-à-go-go-related gene (hERG) potassium channel (human, UniProt Q12809); assay: primary screen, population patch clamp on CHO cells stably expressing hERG; higher = less effect of the substance;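 further: peak tail current of the secondary pulse compared with the same well before compound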
Sequence (Q12809 whole entry, looked up): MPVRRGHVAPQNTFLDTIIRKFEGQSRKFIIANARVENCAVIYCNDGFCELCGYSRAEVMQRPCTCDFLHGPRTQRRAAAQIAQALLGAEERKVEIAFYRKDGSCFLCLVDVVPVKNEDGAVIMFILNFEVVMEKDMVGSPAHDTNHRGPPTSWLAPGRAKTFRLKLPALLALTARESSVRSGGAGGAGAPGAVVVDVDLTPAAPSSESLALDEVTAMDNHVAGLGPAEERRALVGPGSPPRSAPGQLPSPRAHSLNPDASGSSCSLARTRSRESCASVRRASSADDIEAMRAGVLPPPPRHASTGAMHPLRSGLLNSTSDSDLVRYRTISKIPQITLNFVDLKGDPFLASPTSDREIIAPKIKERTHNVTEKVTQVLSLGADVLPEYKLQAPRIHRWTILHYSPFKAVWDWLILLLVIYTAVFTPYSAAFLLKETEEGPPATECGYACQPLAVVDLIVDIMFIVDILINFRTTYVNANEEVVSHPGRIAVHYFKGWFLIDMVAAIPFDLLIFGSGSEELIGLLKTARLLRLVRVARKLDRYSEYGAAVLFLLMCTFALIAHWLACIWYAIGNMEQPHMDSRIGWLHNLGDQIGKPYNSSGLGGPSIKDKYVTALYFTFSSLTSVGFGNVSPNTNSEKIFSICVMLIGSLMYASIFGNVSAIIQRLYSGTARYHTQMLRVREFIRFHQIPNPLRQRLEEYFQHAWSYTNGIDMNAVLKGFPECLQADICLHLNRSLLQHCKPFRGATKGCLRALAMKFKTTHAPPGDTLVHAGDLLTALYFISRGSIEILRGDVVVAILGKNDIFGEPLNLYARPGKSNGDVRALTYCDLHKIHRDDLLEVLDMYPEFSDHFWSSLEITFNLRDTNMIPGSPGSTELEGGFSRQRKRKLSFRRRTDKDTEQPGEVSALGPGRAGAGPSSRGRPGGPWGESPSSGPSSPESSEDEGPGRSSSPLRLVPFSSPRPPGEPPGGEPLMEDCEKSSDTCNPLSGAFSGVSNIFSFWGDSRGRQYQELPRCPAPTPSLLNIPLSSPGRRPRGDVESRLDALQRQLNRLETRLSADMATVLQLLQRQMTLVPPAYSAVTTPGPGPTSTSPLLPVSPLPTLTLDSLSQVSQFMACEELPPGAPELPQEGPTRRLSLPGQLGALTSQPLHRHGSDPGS
In all, about 310,000 compounds went through this assay and about 14,000 (4.5%) showed an effect of 50% or more. The effect is printed as a negative number. What follows is part of a selection rich in strong results, with near analogues and random picks from the rest.
property: hERG current change (%, negative = inhibition) at 10uM (%)
All answers are understood in %, so give the number only.

I would be grateful if you could share the reported hERG current change (%, negative = inhibition) at 10uM for "CCCCCCSc1ccc([C@@H]2[C@H]3C(=O)N(CC)C(=O)[C@H]3[C@]3(C(=O)OC)CCCN23)cc1.O=C(O)C(F)(F)F" . -7.59

I would be grateful if you could share the reported hERG current change (%, negative = inhibition) at 10uM for CCCCn1c(SCC(=O)N(CC)C2CCS(=O)(=O)C2)nc2cc(S(N)(=O)=O)ccc21 (stereo not drawn) . -5.49

I would be grateful if you could share the reported hERG current change (%, negative = inhibition) at 10uM for "CCc1c(C)sc(NC(=O)CN2CCN(C(=O)c3ccco3)CC2)c1C(=O)OC" . -39.7

I would be grateful if you could share the reported hERG current change (%, negative = inhibition) at 10uM for "O=C(COC(=O)c1cccnc1Cl)c1ccccc1" . -4.84

I would be grateful if you could share the reported hERG current change (%, negative = inhibition) at 10uM for CCOC(=O)c1cc(CC)sc1NC(=O)CN1CCN(C(=O)C2CCCO2)CC1 (stereo not drawn) . -65.9

I would be grateful if you could share the reported hERG current change (%, negative = inhibition) at 10uM for "Cc1cc[n+](-c2[nH]c(=O)sc2/C=N/N=C(\[O-])c2ccncc2)cc1" . 5.61

I would be grateful if you could share the reported hERG current change (%, negative = inhibition) at 10uM for "COC(=O)CN1CCN(C(=O)c2ccco2)CC1" . 10

I would be grateful if you could share the reported hERG current change (%, negative = inhibition) at 10uM for "Cc1ccc(C(=O)c2cc(C)sc2NC(=O)CN2CCN(C(=O)c3ccco3)CC2)cc1" . -11.7

I would be grateful if you could share the reported hERG current change (%, negative = inhibition) at 10uM for CC(NC(=O)C1C(=O)N(CCO)C2(C)CC1c1ccccc1O2)c1ccccc1 (stereo not drawn) . -14.4
